biological target: Steroid 17-alpha-hydroxylase/17,20 lyase (Rattus norvegicus, UniProt P11715); assay: Inhibition of 17-alpha-hydroxylase/17,20 lyase from rat testes microsomal preparation; format: microsomes, Testis
parameter-measured: IC50 (µM)

Worked examples, 2 compounds total:
What does the record list as IC50 for Fc1c(F)c(F)c2c(c1F)N=Nc1c(F)c(F)c(F)c(F)c1O2 ? 50

What does the record list as IC50 for CC(=O)N1CCN(c2ccc(OCC3COC(Cn4ccnc4)(c4ccc(Cl)cc4Cl)O3)cc2)CC1 (centres undefined) [KETOCONAZOLE] ? 6

A: Oc1c(F)c(F)c(/N=N/c2c(F)c(F)c(F)c(F)c2F)c(F)c1F
B: Oc1c(F)c(F)c(F)c(F)c1/N=N/c1c(F)c(F)c(F)c(F)c1F
Which value of IC50 is numerically greater: that of A or that of B ? When you have decided, please share the label of that item. B
(B: 63 µM, A: 30 µM)

----------
Biological target: Steroid 17-alpha-hydroxylase/17,20 lyase (Rattus norvegicus, UniProt P11715)
Sequence (P11715 whole entry): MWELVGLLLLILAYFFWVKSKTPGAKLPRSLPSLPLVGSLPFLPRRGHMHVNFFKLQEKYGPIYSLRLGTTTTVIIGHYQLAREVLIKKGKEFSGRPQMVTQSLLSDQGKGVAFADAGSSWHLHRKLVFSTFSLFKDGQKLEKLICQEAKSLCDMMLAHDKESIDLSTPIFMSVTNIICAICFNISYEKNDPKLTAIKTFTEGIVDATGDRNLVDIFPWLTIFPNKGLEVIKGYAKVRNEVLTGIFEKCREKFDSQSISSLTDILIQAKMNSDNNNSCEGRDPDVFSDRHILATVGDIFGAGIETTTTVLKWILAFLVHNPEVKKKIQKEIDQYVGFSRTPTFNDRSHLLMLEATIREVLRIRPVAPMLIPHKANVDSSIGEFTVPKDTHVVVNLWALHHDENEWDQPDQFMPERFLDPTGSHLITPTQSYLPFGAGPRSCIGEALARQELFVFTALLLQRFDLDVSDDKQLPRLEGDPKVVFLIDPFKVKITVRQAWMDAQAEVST
Test: Percent inhibition of 17-alpha-hydroxylase/17,20 lyase of rat testes microsomes at 100 uM
parameter-measured: inhibition at 100 µM (%)

What does the record list as inhibition at 100 µM for c1ccc(/N=N/c2ccccc2)cc1 ? 0

I: Oc1ccc(/N=N/c2ccccc2)cc1
II: Fc1c(F)c(F)c2c(c1F)N=Nc1c(F)c(F)c(F)c(F)c1O2
III: Fc1c(F)c(F)c(/N=N/c2c(F)c(F)c(F)c(F)c2F)c(F)c1F
Please produce an ascending ranking of these compounds based on inhibition at 100 µM. Put the labels in the requested order and list them out. III, I, II
(III: 4%, I: 6%, II: 67%)

I: Oc1c(F)c(F)c(F)c(F)c1/N=N/c1c(F)c(F)c(F)c(F)c1F
II: Oc1c(F)c(F)c(/N=N/c2c(F)c(F)c(O)c(F)c2F)c(F)c1F
Which entry shows the lesser value of inhibition at 100 µM here, I or II ? When you have decided, please share the label of that item. II
(II: 15%, I: 62%)

----------
molecular target: Steroid 17-alpha-hydroxylase/17,20 lyase (Rattus norvegicus); assay: Percent inhibition of Steroid 17-alpha-hydroxylase/17,20 lyase from rat testes microsomes at 100 uM
parameter-measured: inhibition at 100 µM (%)

P: Fc1c(F)c(F)c2c(c1F)N=Nc1c(F)c(F)c(F)c(F)c1O2
Q: Oc1ccc(/N=N/c2ccccc2)cc1
Which value of inhibition at 100 µM is numerically greater: that of P or that of Q ? When you have decided, please share the label of that item. P

I: Oc1c(F)c(F)c(F)c(F)c1/N=N/c1c(F)c(F)c(F)c(F)c1F
II: Oc1c(F)c(F)c(/N=N/c2c(F)c(F)c(O)c(F)c2F)c(F)c1F
Which value of inhibition at 100 µM is numerically greater: that of I or that of II ? When you have decided, please share the label of that item. I

1: Oc1c(F)c(F)c(/N=N/c2c(F)c(F)c(F)c(F)c2F)c(F)c1F
2: Fc1c(F)c(F)c(/N=N/c2c(F)c(F)c(F)c(F)c2F)c(F)c1F
Which value of inhibition at 100 µM is numerically greater: that of 1 or that of 2 ? When you have decided, please share the label of that item. 1
(1: 71%, 2: 0%)

Reference source: ChEMBL document CHEMBL1124902
